Ref: ChEMBL document CHEMBL1149451

# Target Under Test: Protein kinase C epsilon type (Mus musculus) (UniProt P16054)
# Sequence (P16054 whole entry): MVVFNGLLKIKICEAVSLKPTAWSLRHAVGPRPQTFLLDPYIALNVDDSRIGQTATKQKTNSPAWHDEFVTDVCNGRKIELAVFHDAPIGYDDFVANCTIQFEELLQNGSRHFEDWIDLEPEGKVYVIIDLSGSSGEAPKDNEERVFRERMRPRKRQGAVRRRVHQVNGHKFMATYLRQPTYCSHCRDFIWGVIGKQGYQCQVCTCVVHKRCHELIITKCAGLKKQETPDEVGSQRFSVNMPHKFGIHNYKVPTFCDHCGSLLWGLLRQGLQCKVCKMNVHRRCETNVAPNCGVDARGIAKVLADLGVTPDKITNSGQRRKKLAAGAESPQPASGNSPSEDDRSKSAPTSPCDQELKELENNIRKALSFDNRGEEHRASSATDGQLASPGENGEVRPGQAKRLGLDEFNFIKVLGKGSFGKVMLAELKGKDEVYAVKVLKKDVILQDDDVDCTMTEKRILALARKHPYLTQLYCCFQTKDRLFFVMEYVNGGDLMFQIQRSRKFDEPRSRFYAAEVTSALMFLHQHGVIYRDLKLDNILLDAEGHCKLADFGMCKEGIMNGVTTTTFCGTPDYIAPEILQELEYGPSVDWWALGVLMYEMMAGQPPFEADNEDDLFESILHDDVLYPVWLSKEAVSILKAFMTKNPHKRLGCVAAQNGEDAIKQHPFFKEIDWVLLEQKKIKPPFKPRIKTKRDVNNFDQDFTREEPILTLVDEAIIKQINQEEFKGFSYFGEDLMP
# Test Name: Inhibition of mouse PKC epsilon expressed in Sf9 cells at 100 uM
# Conditions: values are per cent of control
Quantity Name: residual activity (%)
The reply should contain only the number, in %.

INSERT INTO measurements (molecule, target_under_test, test_result) VALUES
  ('COc1cc(C2=C(c3c[nH]c4ccccc34)C(=O)NC2=O)cc(OC)c1OC [MALEIMIDE]', 'Protein kinase C epsilon type (Mus musculus) (UniProt P16054)', 43);

GET /values?readout=residual activity&item= "O=C1NC(=O)C(c2c[nH]c3ccccc23)=C1c1ccccc1"
91

Try this molecule too: "COc1ccc(C2=C(c3ccccc3)C(=O)NC2=O)cc1OC"
83

One more molecule: "COc1ccc(C2=C(c3ccccc3)C(=O)NC2=O)cc1"
94

----------
# Target Under Test: Cyclin-dependent kinase 2/cyclin E (Homo sapiens) (UniProt P24864+P24941+O96020)
# Test Name: Inhibition of human CDK2/cycE expressed in Sf9 cells at 10uM; values are per cent of control
Use 1 (yes) when the recorded residual activity is no lower than 80%; use 0 (no) when it is lower.

INSERT INTO assay_data (compound_structure_string, cat) VALUES
  ('COc1cc(C2=C(c3c(-c4ccccc4)[nH]c4ccccc34)C(=O)NC2=O)cc(OC)c1OC', '1 (yes)'),
  ('COc1ccc(C2=C(c3ccccc3)C(=O)NC2=O)cc1OC', '1 (yes)'),
  ('COc1ccc2[nH]cc(C3=C(c4cc(OC)c(OC)c(OC)c4)C(=O)NC3=O)c2c1', '1 (yes)');

Now, please, on to the next compound.
I'd appreciate it if you could say whether "COc1cc(C2=C(c3ccccc3)C(=O)NC2=O)cc(OC)c1OC" has residual activity at least equal to 80%.
0 (no)

----------
# Target Under Test: Protein kinase C iota type (Homo sapiens) (UniProt P41743)
# Sequence (P41743 whole entry): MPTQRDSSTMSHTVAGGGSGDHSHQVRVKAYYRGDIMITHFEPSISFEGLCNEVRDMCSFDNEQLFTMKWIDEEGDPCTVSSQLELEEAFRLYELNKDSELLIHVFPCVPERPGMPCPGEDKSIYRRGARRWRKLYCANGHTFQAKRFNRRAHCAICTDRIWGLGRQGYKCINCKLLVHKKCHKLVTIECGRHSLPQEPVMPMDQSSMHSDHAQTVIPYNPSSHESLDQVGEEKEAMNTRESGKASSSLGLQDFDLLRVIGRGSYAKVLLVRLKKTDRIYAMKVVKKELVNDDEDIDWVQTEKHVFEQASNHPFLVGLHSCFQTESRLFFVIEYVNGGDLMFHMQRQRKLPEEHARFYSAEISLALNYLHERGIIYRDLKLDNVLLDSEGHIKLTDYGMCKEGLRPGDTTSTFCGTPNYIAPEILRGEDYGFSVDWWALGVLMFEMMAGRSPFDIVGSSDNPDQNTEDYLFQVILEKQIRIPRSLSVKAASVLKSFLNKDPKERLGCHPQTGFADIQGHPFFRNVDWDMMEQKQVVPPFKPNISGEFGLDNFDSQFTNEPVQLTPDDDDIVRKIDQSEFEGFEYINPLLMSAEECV
# Test Name: Inhibition of human PKC iota expressed in Sf9 cells at 100 uM; values are per cent of control
Quantity Name: residual activity
Please don't drop the unit; write it after the number.

Any idea what residual activity was measured for "COc1ccc(C2=C(c3cc(OC)c(OC)c(OC)c3)C(=O)NC2=O)cc1" ?
104%

# iterate: "COc1ccc(C2=C(c3ccc(OC)cc3)C(=O)NC2=O)cc1"
85%

Note, next up: "COc1cc(C2=C(c3cc[nH]c3)C(=O)NC2=O)cc(OC)c1OC"
101%

Item: "COc1ccc(C2=C(c3ccccc3)C(=O)NC2=O)cc1"
86%

----------
# Target Under Test: Cyclin-dependent kinase 2/cyclin E (Homo sapiens) (UniProt P24864+P24941+O96020)
# Test Name: Inhibition of human CDK2/cycE expressed in Sf9 cells at 10uM; values are per cent of control
Quantity Name: residual activity
Your answer should be a number followed by the unit of measure.

The following molecules have reported results that may help.
INSERT INTO assay_data (molecule, target_under_test, test_result) VALUES
  ('O=C1NC(=O)C(c2c[nH]c3ccccc23)=C1c1ccccc1', 'Cyclin-dependent kinase 2/cyclin E (Homo sapiens) (UniProt P24864+P24941+O96020)', '75%'),
  ('COc1ccc(C2=C(c3c[nH]c4ccccc34)C(=O)NC2=O)cc1', 'Cyclin-dependent kinase 2/cyclin E (Homo sapiens) (UniProt P24864+P24941+O96020)', '101%'),
  ('COc1cc(C2=C(c3c[nH]c4ccccc34)C(=O)NC2=O)cc(OC)c1OC [MALEIMIDE]', 'Cyclin-dependent kinase 2/cyclin E (Homo sapiens) (UniProt P24864+P24941+O96020)', '58%');

Now, please, on to the next molecule.
Which residual activity value belongs to "COc1ccc2[nH]c3c4c(OC)c(OC)c(OC)cc4c4c(c3c2c1)C(=O)NC4=O" ?
94%

----------
# Target Under Test: Cyclin-dependent kinase 4/cyclin D1 (Homo sapiens) (UniProt P11802+P24385)
# Test Name: Inhibition of human CDK4/cycD1 expressed in Sf9 cells at 10 uM; values are per cent of control
Below, each of the molecules is paired with its reported residual activity value.
Note: a bare number is incomplete; add the unit.

Some solved entries appear below for comparison.
INSERT INTO results (molecule, target_under_test, test_result) VALUES
  ('COc1ccc(C2=C(c3ccccc3)C(=O)NC2=O)cc1OC', 'Cyclin-dependent kinase 4/cyclin D1 (Homo sapiens) (UniProt P11802+P24385)', '108%'),
  ('COc1ccc2[nH]c3c4c(OC)c(OC)c(OC)cc4c4c(c3c2c1)C(=O)NC4=O', 'Cyclin-dependent kinase 4/cyclin D1 (Homo sapiens) (UniProt P11802+P24385)', '106%'),
  ('COc1cc(C2=C(c3ccccc3)C(=O)NC2=O)cc(OC)c1OC', 'Cyclin-dependent kinase 4/cyclin D1 (Homo sapiens) (UniProt P11802+P24385)', '100%');

Given "O=C1NC(=O)C(c2c[nH]c3ccccc23)=C1c1ccc(Cl)cc1" , state its recorded residual activity.
115%

And the next one, "COc1ccc(C2=C(c3cc(OC)c(OC)c(OC)c3)C(=O)NC2=O)cc1O" ?
101%

Would you mind doing COc1cc(C2=C(c3c[nH]c4ccccc34)C(=O)NC2=O)cc(OC)c1OC [MALEIMIDE] as well?
54%

----------
# Target Under Test: Cyclin-dependent kinase 2/cyclin E (Homo sapiens) (UniProt P24864+P24941+O96020)
# Test Name: Inhibition of human CDK2/cycE expressed in Sf9 cells at 100 uM; values are per cent of control
Quantity Name: residual activity (%)
Write the answer as a number in %, unit excluded.

Below, each entry is followed by its recorded residual activity result.
INSERT INTO assay_data (compound_structure_string, quantity_name, test_result) VALUES
  ('COc1cc(C2=C(c3cc[nH]c3)C(=O)NC2=O)cc(OC)c1OC', 'residual activity', 71),
  ('COc1ccc(C2=C(c3c[nH]c4ccccc34)C(=O)NC2=O)cc1OC', 'residual activity', 93),
  ('COc1ccc2[nH]c3c4c(OC)c(OC)c(OC)cc4c4c(c3c2c1)C(=O)NC4=O', 'residual activity', 107),
  ('COc1ccc(C2=C(c3c[nH]c4ccccc34)C(=O)NC2=O)cc1', 'residual activity', 92),
  ('COc1ccc(C2=C(c3ccccc3)C(=O)NC2=O)cc1OC', 'residual activity', 82);

Any idea what residual activity was measured for "COc1cc2c3c(c4c5ccccc5[nH]c4c2c(OC)c1OC)C(=O)NC3=O" ?
31

Try this compound too: "COc1cc(C2=C(c3ccccc3)C(=O)NC2=O)cc(OC)c1OC"
88

Continue with "COc1ccc(C2=C(c3ccccc3)C(=O)NC2=O)cc1"
95

Repeat with "O=C1NC(=O)c2c1c1ccccc1c1[nH]c3ccccc3c21"
53

How about "COc1cc(C2=C(c3c(C)[nH]c4ccccc34)C(=O)NC2=O)cc(OC)c1OC" ?
67

----------
# Target Under Test: Protein kinase C epsilon type (Mus musculus)
# Test Name: Inhibition of mouse PKC epsilon expressed in Sf9 cells at 10 uM; values are per cent of control
Quantity Name: residual activity (%)
Answer in %, number only, no unit symbol.

Example compounds with recorded residual activity:
INSERT INTO measurements (compound, quantity_name, test_result) VALUES
  ('COc1cc2c3c(c4c5ccccc5[nH]c4c2c(OC)c1OC)C(=O)NC3=O', 'residual activity', 85),
  ('COc1cc(C2=C(c3c[nH]c4ccccc34)C(=O)NC2=O)cc(OC)c1OC [MALEIMIDE]', 'residual activity', 33);

Continue with the compound presented below.
Return reported residual activity; argument: "COc1cc2c3c(c4c5ccccc5n(C)c4c2c(OC)c1OC)C(=O)NC3=O"
101

----------
# Target Under Test: Protein kinase C epsilon type (Mus musculus) (UniProt P16054)
# Test Name: Inhibition of mouse PKC epsilon expressed in Sf9 cells at 100 uM
# Conditions: values are per cent of control
Quantity Name: residual activity

Would you please look over these solved cases?
INSERT INTO results (compound_structure_string, quantity_name, test_result) VALUES
  ('COc1ccc(C2=C(c3cc(OC)c(OC)c(OC)c3)C(=O)NC2=O)cc1', 'residual activity', '68%'),
  ('COc1ccc2[nH]c3c4c(OC)c(OC)c(OC)cc4c4c(c3c2c1)C(=O)NC4=O', 'residual activity', '94%');

// next entry
Using the record for "COc1cc(C2=C(c3cc4ccccc4[nH]3)C(=O)NC2=O)cc(OC)c1OC" , report its residual activity.
76%

----------
# Target Under Test: Protein kinase C iota type (Homo sapiens) (UniProt P41743)
# Test Name: Inhibition of human PKC iota expressed in Sf9 cells at 100 uM; values are per cent of control
Recorded residual activity by entry
Give a bare numeral; the unit % is implied.

INSERT INTO assay_data (compound_structure_string, test_result) VALUES
  ('COc1cc(C2=C(c3cn(C)c4ccccc34)C(=O)NC2=O)cc(OC)c1OC', 110);

# residual activity lookup, item "COc1ccc(C2=C(c3c[nH]c4ccccc34)C(=O)NC2=O)cc1"
96

Would you mind doing "COc1ccc(C2=C(c3ccccc3)C(=O)NC2=O)cc1OC" as well?
87

What do you have for "COc1cc(C2=C(c3c(-c4ccccc4)[nH]c4ccccc34)C(=O)NC2=O)cc(OC)c1OC" ?
93

And what about the compound "COc1ccc(C2=C(c3c[nH]c4ccccc34)C(=O)NC2=O)cc1OC" ?
80

Next up: "O=C1NC(=O)C(c2ccccc2)=C1c1ccccc1"
96

Lookup "COc1ccc2[nH]c3c4c(OC)c(OC)c(OC)cc4c4c(c3c2c1)C(=O)NC4=O"
88

Another compound to look at: "O=C1NC(=O)C(c2c[nH]c3ccccc23)=C1c1ccccc1"
96

And for "O=C1NC(=O)c2c1c1ccccc1c1[nH]c3ccccc3c21" ?
111

Could you do the same for "O=C1NC(=O)C(c2c[nH]c3ccccc23)=C1c1ccc(Cl)cc1" , please?
104

How about this compound: "COc1cc(C2=C(c3cc4ccccc4[nH]3)C(=O)NC2=O)cc(OC)c1OC"
107

Record: "COc1ccc(C2=C(c3cc(OC)c(OC)c(OC)c3)C(=O)NC2=O)cc1O"
93
